Recorded pIC50 by entry
Target Desc: human p70S6 kinase (p70S6K, kinase domain residues 1-421, T412E mutation) (Homo sapiens, UniProt P23443, T412E)
Construct: human p70S6 kinase domainresidues 1-421, containing a T412E mutation
Sequence (P23443 1-421 T412E): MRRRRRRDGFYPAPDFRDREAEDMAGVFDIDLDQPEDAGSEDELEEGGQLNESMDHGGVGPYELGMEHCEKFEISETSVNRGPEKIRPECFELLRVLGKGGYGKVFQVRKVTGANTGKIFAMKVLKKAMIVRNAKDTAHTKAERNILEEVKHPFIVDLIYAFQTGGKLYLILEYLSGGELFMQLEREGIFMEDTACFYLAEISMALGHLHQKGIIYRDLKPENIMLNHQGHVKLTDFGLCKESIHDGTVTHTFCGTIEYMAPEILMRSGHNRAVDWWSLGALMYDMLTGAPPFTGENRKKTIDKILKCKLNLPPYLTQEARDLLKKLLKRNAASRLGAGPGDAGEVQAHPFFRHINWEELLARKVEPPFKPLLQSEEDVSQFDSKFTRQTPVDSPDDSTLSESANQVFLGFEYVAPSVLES
Assay Comment: p70S6 kinase assay, Luciferase-Coupled Chemiluminescent Kinase assay (LCCA)
Test Settings: 5 μM ATP, 12 nM p70S6K; read-out: p70S6K inhibition IC50
pIC50: −log10 of the molar value.

pIC50 for O=C(c1ccco1)N1CCN(c2ncnc3[nH]nc(Br)c23)CC1 is 5.70 to 6.30

Continuing:
pIC50 for Fc1cc([C@H](OCCN2CCCC2)C2CCN(c3ncnc4[nH]nc(Br)c34)CC2)ccc1Cl is > 7.30

pIC50 for O=C(c1ccc(Cl)cc1)C1CCN(c2ncnc3[nH]nc(Br)c23)CC1 is > 7.30

pIC50 for Brc1n[nH]c2ncnc(N3CCN(CC4CCCCC4)CC3)c12 is 5.70 to 6.30

pIC50 for CC(c1ccccc1)N1CCN(c2ncnc3[nH]nc(Br)c23)CC1 (centres unmarked) is 6.30 to 7.30

pIC50 for CN(C)CCCC(O)(c1ccc(Cl)cc1)C1CCN(c2ncnc3[nH]nc(Br)c23)CC1 (centres unmarked) is > 7.30

pIC50 for Brc1n[nH]c2ncnc(N3CCN(Cc4ccc5c(c4)OCCO5)CC3)c12 is > 7.30

pIC50 for COc1ccc(CN2CCN(c3ncnc4[nH]nc(Br)c34)CC2)c(OC)c1OC is 6.30 to 7.30
